All values here come from patent US8148415B2.

- test.target: Aromatase (Homo sapiens)
- Construct: Aromatase activity is measured in JEG3 choriocarcinoma cells, obtained from the ATCC; host or cells: JEG3 choriocarcinoma cells
- Sequence (P11511 whole entry): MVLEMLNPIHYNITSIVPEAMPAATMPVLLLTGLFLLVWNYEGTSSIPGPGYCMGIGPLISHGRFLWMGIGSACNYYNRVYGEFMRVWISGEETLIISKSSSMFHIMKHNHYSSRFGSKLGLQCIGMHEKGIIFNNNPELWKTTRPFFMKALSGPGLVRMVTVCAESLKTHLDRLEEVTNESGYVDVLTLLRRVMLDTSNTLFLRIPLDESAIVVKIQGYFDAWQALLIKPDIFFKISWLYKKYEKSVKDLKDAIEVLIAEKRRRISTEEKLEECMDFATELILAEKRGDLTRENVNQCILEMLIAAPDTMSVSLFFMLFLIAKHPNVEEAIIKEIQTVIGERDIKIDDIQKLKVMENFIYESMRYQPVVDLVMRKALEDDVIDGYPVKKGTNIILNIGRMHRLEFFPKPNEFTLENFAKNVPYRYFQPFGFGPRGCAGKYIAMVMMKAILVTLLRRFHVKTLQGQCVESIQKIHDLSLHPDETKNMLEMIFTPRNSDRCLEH
- assay.procedure: Aromatase activity in intact JEG3 choriocarcinoma cells (Protocol 6)
- Format: cell-based
- measurement.setup: intact JEG3 cells
value.kind: IC50 (nM)
Write the answer as a number in nM, unit excluded.

QUERY: Which measured IC50 belongs to `N#Cc1ccc(N(Cc2cccc(OS(N)(=O)=O)c2)n2cnnc2)cc1` , tested on Aromatase (Homo sapiens)?
RESULT: 39

###

- test.target: Steroid sulphatase (Homo sapiens)
- Sequence (P08842 22-583): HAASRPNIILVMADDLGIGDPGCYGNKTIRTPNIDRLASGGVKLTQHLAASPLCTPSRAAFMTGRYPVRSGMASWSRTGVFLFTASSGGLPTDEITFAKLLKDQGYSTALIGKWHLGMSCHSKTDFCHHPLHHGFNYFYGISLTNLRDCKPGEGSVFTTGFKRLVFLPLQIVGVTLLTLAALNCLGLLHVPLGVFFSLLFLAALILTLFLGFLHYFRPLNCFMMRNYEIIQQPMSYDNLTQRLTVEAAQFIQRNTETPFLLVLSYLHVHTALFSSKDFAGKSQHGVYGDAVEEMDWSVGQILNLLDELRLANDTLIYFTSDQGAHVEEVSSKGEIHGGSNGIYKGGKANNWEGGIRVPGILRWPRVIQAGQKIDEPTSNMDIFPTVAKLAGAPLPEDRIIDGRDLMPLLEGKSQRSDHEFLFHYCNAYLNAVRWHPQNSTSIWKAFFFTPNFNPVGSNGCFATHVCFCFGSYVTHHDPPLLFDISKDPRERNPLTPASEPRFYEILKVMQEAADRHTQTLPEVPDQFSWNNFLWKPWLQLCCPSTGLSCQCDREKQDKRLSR
- assay.procedure: Inhibition of steroid sulphatase activity in intact JEG3 cells (Protocol 1)
- Format: cell-based
- Set-up: host or cells: JEG3 choriocarcinoma cells
- measurement.setup: read-out: JEG3 cells IC50 Sulfatase
value.kind: IC50 (µM)
Write the answer as a number in µM, unit excluded.

QUERY: Look up IC50: N#Cc1ccc(N(Cc2cccc(OS(N)(=O)=O)c2)n2cnnc2)cc1 [STX334]
RESULT: 5.13
